system: MCF7 breast; experiment: NCI tumour cell line growth inhibition, 48 h; in the data active means GI50 below about 0.43 µM; inactive means the rest
Outcomes: Y = active, N = inactive

>  <MOLECULE>
N#CC1C(N)=NNC12Nc1ccccc1S2 (stereo not given)

>  <TESTED_TARGET>
MCF7 breast

>  <CLASS_ASSIGNMENT>
N

$$$$
>  <MOLECULE>
CC1CCN(CCOc2ccc(CNc3ccc4nc(CCC5CCCCC5)[nH]c4c3)cc2)CC1

>  <TESTED_TARGET>
MCF7 breast

>  <CLASS_ASSIGNMENT>
N

$$$$
>  <MOLECULE>
COC1=C(OC)C(=O)C(CCCCCCCCCCO)=C(C)C1=O

>  <TESTED_TARGET>
MCF7 breast

>  <CLASS_ASSIGNMENT>
N

$$$$
>  <MOLECULE>
COCCOCCOCCOCCOC(=O)OC[n+]1ccc(NC(=NCCCCCCOc2ccc(Cl)cc2)NC#N)cc1

>  <TESTED_TARGET>
MCF7 breast

>  <CLASS_ASSIGNMENT>
N

$$$$
>  <MOLECULE>
COc1cc(-c2ncn(/C=C\c3nnco3)n2)cc(C(F)(F)F)c1

>  <TESTED_TARGET>
MCF7 breast

>  <CLASS_ASSIGNMENT>
Y

$$$$

====

system: SF-268 CNS; assay: NCI tumour cell line growth inhibition, 48 h

>  <MOLECULE>
Nc1c(Cl)cc(-c2nc3ccccc3s2)cc1Cl

>  <TESTED_TARGET>
SF-268 CNS

>  <TGI>
> 100 µM

$$$$
>  <MOLECULE>
Nc1nc(-c2ccc(Cl)cc2)nc2c1sc(=S)n2-c1ccccc1

>  <TESTED_TARGET>
SF-268 CNS

>  <TGI>
20.2 µM

$$$$
>  <MOLECULE>
COc1cc(/C=C/C(=O)O[C@H]2[C@H](O[C@@H]3O[C@@H](C)[C@H](O)[C@@H](O)[C@H]3O)[C@@H](O)[C@H](OCCc3ccc(O)c(O)c3)O[C@@H]2COC2OCC(O)(CO)C2O)ccc1O (some centres undefined)

>  <TESTED_TARGET>
SF-268 CNS

>  <TGI>
> 100 µM

$$$$
>  <MOLECULE>
Nc1nc(C(=O)O)c(N=Nc2ccccc2)c(=O)[nH]1

>  <TESTED_TARGET>
SF-268 CNS

>  <TGI>
> 100 µM

$$$$

====

system: COLO 205 colon; assay: NCI tumour cell line growth inhibition, 48 h
Below is a list of entries, each paired with its recorded TGI value.
MEASURED_PROPERTY: TGI

>  <MOLECULE>
Cc1cccc(CNc2ncnc3[nH]ncc23)c1

>  <MEASURED_PROPERTY>
TGI

>  <MEASURED>
> 100 µM

$$$$
>  <MOLECULE>
N#CCNC(=O)c1ccc(-c2ccnc(Nc3ccc(N4CCOCC4)cc3)n2)cc1

>  <MEASURED_PROPERTY>
TGI

>  <MEASURED>
> 31.5 µM

$$$$
>  <MOLECULE>
O=C(N/N=C(\C1=Nc2ccc(Cl)cc2NC1O)C(O)/C=C/c1ccccc1)c1ccncc1 (stereo not drawn)

>  <MEASURED_PROPERTY>
TGI

>  <MEASURED>
> 100 µM

$$$$

====

system: T-47D breast; assay: NCI tumour cell line growth inhibition, 48 h
Below, each of the compounds is paired with its reported TGI value.

>  <COMPOUND>
C=C1C2CCC3(CCC4C5(C)CCCC4(C=[N+](CCO)C5)C3C2)C1O (stereo not drawn)

>  <TGI>
> 100 µM

$$$$
>  <COMPOUND>
c1cc(CN2CCNCCNCCNCC2)cc(CN2CCNCCNCCNCC2)c1

>  <TGI>
> 100 µM

$$$$
>  <COMPOUND>
CSc1nc2c3ccccc3ccn2c1C(=O)N/N=C/c1ccccc1

>  <TGI>
> 90.2 µM

$$$$
